Recorded values, source ChEMBL document CHEMBL4339227.

Assay: Competitive inhibition of GCase in human leukocytes extracts using 4-methylumbelliferyl-beta-D-glucoside substrate incubated for 1 hr by spectrophotometry
Format: cell-based
metric.name: Ki (µM)
Numeric only. Scale: µM

*Q* Using the record for `CCCCCCCC[C@H]1NC[C@@H](O)[C@@H](O)[C@@H]1O` , report its Ki.
*A* 18.5

*Q* Please report the recorded Ki for `CCCCCCCCCCCC[C@H]1NC[C@@H](O)[C@@H](O)[C@@H]1O` .
*A* 3.6

---

Test: Inhibition of GCase in human leukocytes extracts using 4-methylumbelliferyl-beta-D-glucoside substrate incubated for 1 hr by spectrophotometry
Type: cell-based
metric.name: IC50 (µM)
Give just the numeric value; µM need not be written.

Example cases with answers are listed next.
*Q* Request the reported IC50 associated with `CCCCCCCC[C@H]1NC[C@@H](O)[C@@H](O)[C@@H]1O`
*A* 29.3

*Q* Returns the measured IC50 for the input compound. Input: `CCCCCCCCCCCC[C@@H]1NC[C@@H](O)[C@@H](O)[C@@H]1O`
*A* 23.3

*Q* GET /values?readout=IC50&item= `CCCCCCCC[C@@H]1NC[C@@H](O)[C@@H](O)[C@@H]1O`
*A* 93.5

*Q* Tell me the measured IC50 of `CCCCCCCCCCC[C@H]1NC[C@@H](O)[C@@H](O)[C@@H]1O` , please.
*A* 7

*Q* Entry `CCCCCCCCN1C[C@@H](O)C(O)[C@H](O)C1` : reported IC50 = ?
*A* 30

*Q* Form field: reported IC50 of `CCCCCCCCCCC[C@@H]1NC[C@@H](O)[C@@H](O)[C@@H]1O`
*A* 100

*Q* Bench note: what IC50 did `CCCCCCCCCCCCC[C@@H]1NC[C@@H](O)[C@@H](O)[C@@H]1O` show?
*A* 160

*Q* Suppose we examine the compound `CCCCCCCCCCCCC[C@H]1NC[C@@H](O)[C@@H](O)[C@@H]1O` ; what IC50 value has been reported?
*A* 9

# ---- query compound ----
*Q* What IC50 value was documented for this compound, `CCCCCCCCCCCC[C@H]1NC[C@@H](O)[C@@H](O)[C@@H]1O` ?
*A* 1.5

---

Organism: Homo sapiens
Assay: Inhibition of GCase in human leukocytes extracts at 1 mM using 4-methylumbelliferyl-beta-D-glucoside substrate incubated for 1 hr by spectrophotometry relative to untreated control
Assay type: cell-based
In this section we review reported inhibition values for a set of compounds.
Please state the figure in %; there is no need to write the unit.

Below, 5 compounds whose answers are already recorded.
*Q* Value lookup for inhibition; key = `CCCCCCCCCCCCC[C@H]1NC[C@@H](O)[C@@H](O)[C@@H]1O`
*A* 98

*Q* Given `CCCCCCCCCCC[C@@H]1NC[C@@H](O)[C@@H](O)[C@@H]1O` , state its recorded inhibition.
*A* 96

*Q* Need inhibition, item `CCCCCCCCCCC[C@H]1NC[C@@H](O)[C@@H](O)[C@@H]1O`
*A* 100

*Q* Would you kindly share the measured inhibition for `CCCCCCCCN1C[C@@H](O)C(O)[C@H](O)C1` ?
*A* 98

*Q* Param item = `CCCCCCCCCCCCC[C@@H]1NC[C@@H](O)[C@@H](O)[C@@H]1O` ; retrieve measured inhibition.
*A* 88

Others:
*Q* Endpoint output: inhibition of `CCCCCCCCCCCC[C@@H]1NC[C@@H](O)[C@@H](O)[C@@H]1O` . Value?
*A* 91

*Q* Look up inhibition for this compound: `CCCCCCCC[C@@H]1NC[C@@H](O)[C@@H](O)[C@@H]1O`
*A* 80
